test: APR_HepG2_MicrotubuleCSK_72hr: Apredica 72-hour HepG2 Assay for Microtubule CSK Stabilty (AID 2282919); settings: HepG2 microtubule cytoskeleton, high-content imaging, actives raise or lower the signal
Calls of active or inactive are those of the source. Rule for the calls: active = hit-call score of the fitted dose curve at least 0.9, where 1 is the maximum; inactive = score below 0.9.
Response enum: 1 for active, 0 for inactive

• O=C(Nc1ccccc1)Nc1cnns1 = 1
• O=S1OCC2C(CO1)C1(Cl)C(Cl)=C(Cl)C2(Cl)C1(Cl)Cl (configuration not stated) = 1
• Cc1[nH]c(=O)n(C(C)(C)C)c(=O)c1Cl = 0
• Clc1ccccc1-c1nnc(-c2ccccc2Cl)nn1 = 1
• COC(=O)c1ccccc1S(=O)(=O)NC(=O)Nc1nc(C)nc(OC)n1 = 0
• N#CN = 0

Write down the call the test reported for this compound. Item: CCC(C)(NC(=O)c1cc(Cl)c(C)c(Cl)c1)C(=O)CCl (configuration not stated) 0

// param item: O=C1c2ccccc2C(=O)N1SC(Cl)(Cl)Cl ; yields the recorded call 0

Could you please tell me the result logged for O=C(O)CCCOc1ccc(Cl)cc1Cl in this assay? 0

Query: recorded result category for CC1(C)C(C=C(Cl)Cl)C1C(=O)OC(C#N)c1ccc(F)c(Oc2ccccc2)c1 (configuration not stated) in this test 0

Please state the recorded outcome for this compound: COP(=O)(OC)OC=C(Cl)Cl 0

Assay outcome for CCCN(CCOc1c(Cl)cc(Cl)cc1Cl)C(=O)n1ccnc1 : what was it? 1

// outcome(item) with item = COC(=O)c1ccccc1CS(=O)(=O)NC(=O)Nc1nc(OC)cc(OC)n1 0

Please let me know the test result on file for COC(=O)c1ccccc1S(=O)(=O)NC(=O)N(C)c1nc(C)nc(OC)n1 . 0

For OCCOc1ccccc1 , which call appears in the assay record? 0

What is the recorded call for this compound in the test? CNC(=O)Oc1cccc(N=CN(C)C)c1 0

Which result was noted for this compound in the test: CN1CSC(=S)N(C)C1 1

In this assay, the call recorded for CNC(=O)/C=C(\C)OP(=O)(OC)OC was what? 0

Hi team, can someone confirm the assay call for COc1nn(CSP(=S)(OC)OC)c(=O)s1 ? 0

====

read-out: Thrombomodulin, THBD (gene 7056); experiment: BSK_CASM3C_Thrombomodulin: BioMAP Diversity Plus: CASM3C Assay for Thrombomodulin Biomarker Activity (AID 2283051); conditions: primary human coronary artery smooth muscle cells; actives raise or lower the signal;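 note: thrombomodulin protein level measured by ELISA 24 h after dosing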
Calls of active or inactive are those of the source. How the source made its calls: active means hit-call score of the fitted dose curve at least 0.9, where 1 is the maximum; inactive means score below 0.9.
One label from this list, please: active, inactive

Worked set:
• CC1(c2ccc(Oc3ccccc3)cc2)OC(=O)N(Nc2ccccc2)C1=O (stereo not drawn) = inactive
• CCC(C)(C)C(=O)OC1=C(c2ccc(Cl)cc2Cl)C(=O)OC12CCCCC2 = active
• CNC(=O)/C=C(\C)OP(=O)(OC)OC = inactive
• COP(=S)(OC)Oc1ccc([N+](=O)[O-])cc1 = inactive
• O=C(O)COc1ccc(Cl)cc1Cl = inactive
• O=[N+]([O-])c1c(Cl)c(Cl)c(Cl)c(Cl)c1Cl = active

Recorded test outcome, item Cc1cc(C)nc(NC(=O)NS(=O)(=O)c2ccccc2C(=O)OC2COC2)n1 inactive

Recorded test outcome, item O=C(O)CCCOc1ccc(Cl)cc1Cl inactive

Hi team, can someone confirm the assay call for ClC1C(Cl)C(Cl)C(Cl)C(Cl)C1Cl (stereo not drawn) ? inactive

Recorded call for CCC(C)(NC(=O)c1cc(Cl)c(C)c(Cl)c1)C(=O)CCl (stereo not drawn) ? inactive

Please share the test call associated with CCS(=O)(=O)c1cccnc1S(=O)(=O)NC(=O)Nc1nc(OC)cc(OC)n1 . inactive
